These measurements were taken from patent US20230340128A1.

Molecular target: human mesothelin (MSLN) (human) (UniProt Q13421)
Test: BLI (Octet), bsAb in 1+1 Fab-scFv-Fc format

BINDER	Response
XENP32568 (bispecific antibody, part only; not given: anti-CD3 scFv-Fc arm, constant regions, V domains shown, not shown: another chain or arm of the molecule; a dimerising Fc or GST; small tags and cut ends) VH: QVQLVQSGAEVKKPGASVKVSCKASGYTFTSYWMHWVRQAPGQGLEWMGMIHPNSDNTIYYEKFQGRVTMTVDKSISTAYMELSRLRSDDTAVYYCAIIITPVVPKFDYWGQGTLVTVSS VL: DIVMTQSPDSLAVSLGERATINCKASHDVGTSVAWYQQKPGQSPKLLIYWASTRHTGVPDRFTGSGSGTDFTLTISSLQAEDVAVYFCQQYSSTPLTFGAGTKLEIK	0.107
XENP32553 (bispecific antibody, part only; not given: anti-CD3 scFv-Fc arm, constant regions, V domains shown, not shown: another chain or arm of the molecule; a dimerising Fc or GST; small tags and cut ends) VH: QVQLVQSGAEVKKPGASVKVSCKASGYTFTSYWMHWVRQAPGQGLEWMGMINPNSDNTIYYEKFQGRVTMTVDKSISTAYMELSRLRSDDTAVYYCAIIITPVVPKFDYWGQGTLVTVSS VL: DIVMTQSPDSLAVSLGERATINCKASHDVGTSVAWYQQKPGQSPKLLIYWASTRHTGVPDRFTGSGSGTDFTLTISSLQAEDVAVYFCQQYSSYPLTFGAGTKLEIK	1.16
XENP32565 (bispecific antibody, part only; not given: anti-CD3 scFv-Fc arm, constant regions, V domains shown, not shown: another chain or arm of the molecule; a dimerising Fc or GST; small tags and cut ends) VH: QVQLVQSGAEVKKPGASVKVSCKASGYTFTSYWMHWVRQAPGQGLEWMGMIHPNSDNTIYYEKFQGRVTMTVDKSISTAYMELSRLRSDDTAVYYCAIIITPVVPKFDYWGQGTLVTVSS VL: DIVMTQSPDSLAVSLGERATINCKASHDVGTSVAWYQQKPGQSPKLLIYWASTRETGVPDRFTGSGSGTDFTLTISSLQAEDVAVYFCQQYSSYPLTFGAGTKLEIK	1.11
